- assay.comment: Oral bioavailability in male CD1 mouse at 50 mg/kg by LC-MS analysis
- Type: ADME, organism-based
- test.parameters: in vivo

| smiles | bioavailability, % |
| --- | --- |
| Cc1[nH]c2c(c(=O)c1-c1ccc(Cl)cc1)CC(F)(F)CC2 | 23.4 |

----------
- assay.comment: Cmax in male CD1 mouse at 50 mg/kg, po by LC-MS analysis
- Format: ADME, organism-based
- test.parameters: in vivo

| smiles | Cmax / ng/mL |
| --- | --- |
| Cc1[nH]c2c(c(=O)c1-c1ccc(Cl)cc1)CC(F)(F)CC2 | 28900 |

----------
- assay.comment: Metabolic stability in rat hepatocytes assessed as intrinsic clearance measured at 10^6 cells incubated for 5 to 120 mins by LC-MS/MS analysis
- Format: ADME, cell-based, Hepatocyte
- test.parameters: time 5-120 min, read-out: CLH

| smiles | hepatocyte CLint |
| --- | --- |
| Cc1[nH]c2c(c(=O)c1-c1ccc(Oc3ccc(OC(F)(F)F)cc3)cc1)CCCC2 | 9.05 µL/min/1e6 cells |
| Cc1[nH]c2c(c(=O)c1-c1ccc(F)cc1)CC(F)(F)CC2 | < 1 µL/min/1e6 cells |
| Cc1[nH]c2c(c(=O)c1-c1ccc(Oc3ccc(OC(F)(F)F)cc3)cc1)CC(F)(F)CC2 | < 1 µL/min/1e6 cells |
| Cc1[nH]c2c(c(=O)c1-c1ccc(Oc3ccc(OC(F)(F)F)cc3)cc1)COCC2 | 2.63 µL/min/1e6 cells |
| Cc1[nH]c2c(c(=O)c1-c1ccc(Cl)cc1)CC(F)(F)CC2 | < 1 µL/min/1e6 cells |
| Cc1[nH]c2ccccc2c(=O)c1-c1ccc(Oc2ccc(OC(F)(F)F)cc2)cc1 | 6.17 µL/min/1e6 cells |
| Cc1[nH]c2c(c(=O)c1-c1ccc(OC(F)(F)F)cc1)CCCC2 | 1.14 µL/min/1e6 cells |

----------
- assay.comment: AUC in male CD1 mouse at 50 mg/kg, po by LC-MS analysis
- Assay type: ADME, organism-based
- test.parameters: in vivo
readout: AUC

| smiles | value.reported |
| --- | --- |
| Cc1[nH]c2c(c(=O)c1-c1ccc(Cl)cc1)CC(F)(F)CC2 | 405 µg·h/mL |

----------
- assay.comment: Solubility of the compound at pH 7.4
- Type: physicochemical
- test.parameters: buffer

| smiles | solubility, µM |
| --- | --- |
| Cc1[nH]c2ccccc2c(=O)c1-c1ccc(Oc2ccc(OC(F)(F)F)cc2)cc1 | 3 |
| Cc1[nH]c2c(c(=O)c1-c1ccc(Oc3ccc(OC(F)(F)F)cc3)cc1)COCC2 | 140 |
| Cc1[nH]c2c(c(=O)c1-c1ccc(F)cc1)CC(F)(F)CC2 | 68 |
| Cc1[nH]c2c(c(=O)c1-c1ccc(Oc3ccc(OC(F)(F)F)cc3)cc1)CCCC2 | 0.2 |
| Cc1[nH]c2c(c(=O)c1-c1ccc(Cl)cc1)CC(F)(F)CC2 | 20 |
| Cc1[nH]c2c(c(=O)c1-c1ccc(Oc3ccc(OC(F)(F)F)cc3)cc1)CC(F)(F)CC2 | 2 |
| Cc1[nH]c2c(c(=O)c1-c1ccc(OC(F)(F)F)cc1)CCCC2 | 14 |

----------
- assay.comment: Clearance in male CD1 mouse at 2 mg/kg, iv by LC-MS analysis
- Assay type: ADME, organism-based
- test.parameters: in vivo

| smiles | unit.annotation | clearance |
| --- | --- | --- |
| Cc1[nH]c2c(c(=O)c1-c1ccc(Cl)cc1)CC(F)(F)CC2 | mL/min/kg | 0.47 |
